test system: HCI-023 (organoid from a triple-negative breast cancer xenograft); experiment: CTG-3D luminescence at 96 h relative to day-0 seeding control (ratio to day 0); higher = more growth / less cytotoxicity; PDxO 3D drug screen (set 2), 96 h, CTG-3D normalised to day-0 seeding control.; settings: 1 µM; days in culture: 223
quantity-measured: CTG-3D luminescence at 96 h
No unit in the answer, only the number.

# molecule, CTG-3D luminescence at 96 h
rows = [
    ("O=C(c1cc(Cc2n[nH]c(=O)c3ccccc23)ccc1F)N1CCN(C(=O)C2CC2)CC1 [olaparib]", 1.36),
    ("CC(=O)c1c(C)c2cnc(Nc3ccc(N4CCNCC4)cn3)nc2n(C2CCCC2)c1=O [palbociclib]", 1.21),
    ("CO[C@H]1C[C@@H]2CC[C@@H](C)[C@@](O)(O2)C(=O)C(=O)N2CCCC[C@H]2C(=O)O[C@H]([C@H](C)C[C@@H]2CC[C@@H](O)[C@H](OC)C2)CC(=O)[C@H](C)/C=C(\\C)[C@@H](O)[C@@H](OC)C(=O)[C@H](C)C[C@H](C)/C=C/C=C/C=C/1C [rapamycin]", 0.95),
]

Consider now this further molecule.
Challenge: For HCI-023, provide CTG-3D luminescence at 96 h of CCOc1ccn(-c2ccc(F)cc2)c(=O)c1C(=O)Nc1ccc(Oc2ccnc(N)c2Cl)c(F)c1 [ASLAN002] please.
Response given: 1.5

====

test system: HCI-001 (organoid from a triple-negative breast cancer xenograft); assay: CTG-3D luminescence at 96 h relative to day-0 seeding control (ratio to day 0); higher = more growth / less cytotoxicity; PDxO 3D drug screen (set 2), 96 h, CTG-3D normalised to day-0 seeding control.; conditions: 0.005 µM; days in culture: 397
quantity-measured: CTG-3D luminescence at 96 h

Here's what some known entries look like.
# compound, CTG-3D luminescence at 96 h
data = [
    ("C[C@@H](Nc1cc(F)cc(F)c1)c1cc(C(=O)N(C)C)cc2c(=O)cc(N3CCOCC3)oc12", 2.23),
    ("CO[C@H]1C[C@@H]2CC[C@@H](C)[C@@](O)(O2)C(=O)C(=O)N2CCCC[C@H]2C(=O)O[C@H]([C@H](C)C[C@@H]2CC[C@@H](O)[C@H](OC)C2)CC(=O)[C@H](C)/C=C(\\C)[C@@H](O)[C@@H](OC)C(=O)[C@H](C)C[C@H](C)/C=C/C=C/C=C/1C", 1.53),
]

Challenge: For HCI-001, provide CTG-3D luminescence at 96 h of COc1cccc2c1C(=O)c1c(O)c3c(c(O)c1C2=O)C[C@@](O)(C(=O)CO)C[C@@H]3O[C@H]1C[C@H](N)[C@@H](O)[C@H](C)O1 [epirubicin] please.
Response given: 1.7

Challenge: For HCI-001, provide CTG-3D luminescence at 96 h of CO[C@H]1C[C@@H]2CC[C@@H](C)[C@@](O)(O2)C(=O)C(=O)N2CCCC[C@H]2C(=O)O[C@H]([C@H](C)C[C@@H]2CC[C@@H](OCCO)[C@H](OC)C2)CC(=O)[C@H](C)/C=C(\C)[C@@H](O)[C@@H](OC)C(=O)[C@H](C)C[C@H](C)/C=C/C=C/C=C/1C please.
Response given: 1.92

Challenge: For HCI-001, provide CTG-3D luminescence at 96 h of CC(=O)O[C@@]12CO[C@@H]1C[C@H](O)[C@@]1(C)C(=O)[C@H](O)C3=C(C)[C@@H](OC(=O)[C@H](O)[C@@H](NC(=O)OC(C)(C)C)c4ccccc4)C[C@@](O)([C@@H](OC(=O)c4ccccc4)[C@H]21)C3(C)C please.
Response given: 1.28

Challenge: For HCI-001, provide CTG-3D luminescence at 96 h of CC(=O)c1c(C)c2cnc(Nc3ccc(N4CCNCC4)cn3)nc2n(C2CCCC2)c1=O please.
Response given: 2.31

====

Below is a list of entries, each paired with its recorded CTG-3D luminescence at 96 h value.
test system: HCI-001; test: CTG-3D luminescence at 96 h relative to day-0 seeding control (ratio to day 0); higher = more growth / less cytotoxicity; PDxO 3D drug screen, 96 h, CTG-3D normalised to day-0 seeding control.; conditions: 10 µM; days in culture: 240

# structure-smiles-string, study-target, CTG-3D luminescence at 96 h
measured = [
    ("O=C(/C=C/c1cccnc1)NCCCCC1CCN(C(=O)c2ccccc2)CC1", "HCI-001", 0.0983),
    ("C/C=C1\\NC(=O)[C@H]2CSSCC/C=C/[C@H](CC(=O)N[C@H](C(C)C)C(=O)N2)OC(=O)[C@H](C(C)C)NC1=O", "HCI-001", 0.0301),
    ("C=CCn1c(=O)c2cnc(Nc3ccc(N4CCN(C)CC4)cc3)nc2n1-c1cccc(C(C)(C)O)n1", "HCI-001", 0.244),
    ("CNC(=O)c1cccc(-c2ccc3c(N4CCOC[C@@H]4C)nc(N4CCOC[C@@H]4C)nc3n2)c1", "HCI-001", 0.404),
    ("C=CC(=O)N1CCC[C@@H](n2nc(-c3ccc(Oc4ccccc4)cc3)c3c(N)ncnc32)C1", "HCI-001", 0.951),
    ("CCN(c1cc(C#CCN2CCOCC2)cc(C(=O)NCc2c(C)cc(C)[nH]c2=O)c1C)[C@H]1CC[C@H](N(C)CCOC)CC1", "HCI-001", 1.35),
]

Challenge: Which CTG-3D luminescence at 96 h value is on record for NC1(C(=O)N[C@@H](CCO)c2ccc(Cl)cc2)CCN(c2nc[nH]c3nccc2-3)CC1 ?
Response given: 0.407

====

system: HCI-024 (organoid from a breast cancer xenograft); experiment: CTG-3D luminescence at 96 h relative to day-0 seeding control (ratio to day 0); higher = more growth / less cytotoxicity; PDxO 3D drug screen, 96 h, CTG-3D normalised to day-0 seeding control.; details: 10 µM; days in culture: 122
Binary call on CTG-3D luminescence at 96 h: TRUE from 1 upward, FALSE beneath that.

# structure-smiles-string, class-assignment
measured = [
    ("O=C(/C=C/c1cccnc1)NCCCCC1CCN(C(=O)c2ccccc2)CC1", "FALSE"),
]

Challenge: Assess whether reported CTG-3D luminescence at 96 h for CS(=O)(=O)c1ccc(C(=O)Nc2ccc(Cl)c(-c3ccccn3)c2)c(Cl)c1 sits at 1 or higher.
Response given: TRUE

Challenge: Assess whether reported CTG-3D luminescence at 96 h for Nc1ccn([C@@H]2O[C@H](CO)[C@@H](O)C2(F)F)c(=O)n1 sits at 1 or higher.
Response given: TRUE

Challenge: Assess whether reported CTG-3D luminescence at 96 h for C/C=C1\NC(=O)[C@H]2CSSCC/C=C/[C@H](CC(=O)N[C@H](C(C)C)C(=O)N2)OC(=O)[C@H](C(C)C)NC1=O sits at 1 or higher.
Response given: FALSE

Challenge: Assess whether reported CTG-3D luminescence at 96 h for NC(=O)c1cccc2cn(-c3ccc([C@@H]4CCCNC4)cc3)nc12 sits at 1 or higher.
Response given: TRUE

Challenge: Assess whether reported CTG-3D luminescence at 96 h for C[C@H](NC(=O)CCC(F)(F)F)C(=O)N[C@@H]1C(=O)N(CCO)c2ncccc2-c2ccccc21 sits at 1 or higher.
Response given: TRUE

====

tested on: HCI-027 (organoid from a triple-negative breast cancer xenograft); test: CTG-3D luminescence at 96 h relative to day-0 seeding control (ratio to day 0); higher = more growth / less cytotoxicity; PDxO 3D drug screen (set 2), 96 h, CTG-3D normalised to day-0 seeding control.; conditions: 625 fM; days in culture: 186
Binary call on CTG-3D luminescence at 96 h: True from 3 upward, False beneath that.

Completed entries (count: 3):
# structure-smiles-string, class-assignment
rows = [
    ("C[C@@H](Nc1cc(F)cc(F)c1)c1cc(C(=O)N(C)C)cc2c(=O)cc(N3CCOCC3)oc12", "False"),
    ("CCOc1ccn(-c2ccc(F)cc2)c(=O)c1C(=O)Nc1ccc(Oc2ccnc(N)c2Cl)c(F)c1", "False"),
    ("Cc1c(CN2CCN(C(=O)[C@H](C)O)CC2)sc2c(N3CCOCC3)nc(-c3cnc(N)nc3)nc12", "False"),
]

Challenge: Assess whether reported CTG-3D luminescence at 96 h for CO[C@H]1C[C@@H]2CC[C@@H](C)[C@@](O)(O2)C(=O)C(=O)N2CCCC[C@H]2C(=O)O[C@H]([C@H](C)C[C@@H]2CC[C@@H](OCCO)[C@H](OC)C2)CC(=O)[C@H](C)/C=C(\C)[C@@H](O)[C@@H](OC)C(=O)[C@H](C)C[C@H](C)/C=C/C=C/C=C/1C sits at 3 or higher.
Response given: True

Challenge: Assess whether reported CTG-3D luminescence at 96 h for CS(=O)(=O)CCNCc1ccc(-c2ccc3ncnc(Nc4ccc(OCc5cccc(F)c5)c(Cl)c4)c3c2)o1 sits at 3 or higher.
Response given: False

Values compiled from the supplement of paper PMC8882468.
